# TEST: folding stability dG unfold from chymotrypsin proteolysis; higher = more stable
Attribute: folding stability dG unfold
TEST READOUT: folding stability dG unfold (kcal/mol)

{"SEQUENCE DATA": "SATETLTVVETRTVRDPAVPGTTTTETRVTEVTRPAPPPPPLSAEELARALAEAGLLERTDDGELKVVLSAG [r14_582_TrROS_Hall]", "TEST READOUT": "folding stability dG unfold", "U": "kcal/mol", "RECORDED MEASUREMENT": -0.276}
{"SEQUENCE DATA": "SAGGSAKKKKKKKVKKVITIPVGGYKIEITYNKKTKKITVKVYKKNKNGKLLSEEEVKKLVKELLSSAGGSA [r15_735_TrROS_Hall]", "TEST READOUT": "folding stability dG unfold", "U": "kcal/mol", "RECORDED MEASUREMENT": 3.4}
{"SEQUENCE DATA": "SAGGAITLEYEVETEEEAEKAIEELEKELKEKFGGPVKIEKATIEKTEDPSVPREKYRLKLTIEINKSAGGS [r8_171_JUSTAS]", "TEST READOUT": "folding stability dG unfold", "U": "kcal/mol", "RECORDED MEASUREMENT": 1.08}
{"SEQUENCE DATA": "SMMKIRIVNKETKEEIEEIEIEKNEDGSYTIKIKIKKNGKTYEIEIKLPKGMKIEELLKKLGIEKAEIEPSA [r9_492_TrROS_Hall]", "TEST READOUT": "folding stability dG unfold", "U": "kcal/mol", "RECORDED MEASUREMENT": 1.98}

----------
# TEST: folding stability dG unfold from trypsin proteolysis; higher = more stable

{"SEQUENCE DATA": "SAGGSAGGSAGGAAPNTFKVRLELKVKVEKRTYKNEDGSTYEVDSISVELKIEIEPLPDSAGGSAGGSAGGS [r10_1212_TrROS_Hall]", "folding stability dG unfold [kcal/mol]": 3.85}
{"SEQUENCE DATA": "SAGGSAGGSAGGAPEVKRVLVLVEVEVKPGDTIELPEGARVIWDPKTRRLYVLVEVELRPSAGGSAGGSAGG [r7_584_TrROS_Hall]", "folding stability dG unfold [kcal/mol]": 2.73}
{"SEQUENCE DATA": "SVPADAKPGVVPERVVLVIVVPPELLDEDGRLRPENLEIAAGEAAEAARKLREAFPDVPIEDVGVVVVEGSA [r9_943_TrMRF]", "folding stability dG unfold [kcal/mol]": 0.869}
{"SEQUENCE DATA": "SAGGSAGGSSPVKQVTEVKDPHSSLPLLRTTETLVLPNGEVVTKVKFIDTKTGKSTEEIFTIPSAGGSAGGS [r20_229_JUSTAS]", "folding stability dG unfold [kcal/mol]": 0.724}
{"SEQUENCE DATA": "SAGGSIRIYANNVEITDIEIGDDGYIEIKVRMRGPNGQPQEFTLMIRVVPPPPPPKVDPNDPDAKDSAGGSA [r2_368_TrROS]", "folding stability dG unfold [kcal/mol]": 2.51}
{"SEQUENCE DATA": "SAGGSAGGSAGGELNIDDIKIDWFPADDMDDRYIFTEKIRGPNGKPTMEVTFWLPAGDLSAGGSAGGSAGGS [r10_155_TrROS]", "folding stability dG unfold [kcal/mol]": 0.262}
{"SEQUENCE DATA": "SAGGSAGGSAMLRIKIYYKKNGEEYEIEVEGSLEEALKEAAKKLGLSEDEIKKIEIEELPESAGGSAGGSAG [r3_79_TrROS_Hall]", "folding stability dG unfold [kcal/mol]": 2.66}
